These measurements were taken from paper PMC11101759.

- Experimental system: DS-epi1 (truncated form, amino acid 23–775-HIS) (Homo sapiens)
- Construct: truncated, residues 23-775, HIS tag
- Assay comment: DS-epi1 epimerase activity assay
# pIC50 values compiled below
The quantity pIC50 is defined as the negative base-10 logarithm of the molar concentration.

CN(c1cc(-c2ccccc2)nc(SCc2ccc(C(=O)O)o2)n1)C1CCCCC1 [compound 3, inhibitor 3] | 4.92

Next compound, please.
Which pIC50 is reported for this compound? CCCN(C)c1cc(-c2ccccc2)nc(SCc2cccc(C(=O)O)c2)n1 [compound 11, inhibitor 11]
4.80
